Assay: growth inhibitors of tim10-1 mutant yeast, primary screen, luminescence, uHTS (AID 463190);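 further: mutant grown at 25 °C; 0% = DMSO wells with yeast and 100% = wells holding no yeast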
Details: S. cerevisiae tim10-1 ts strain growth, BacTiter-Glo, 24 h; at 20 µM; stronger effect = higher value
About 7,300 (2.2%) of roughly 330,000 compounds were called active. The list comes from a sample in which actives are over-represented; it also holds close analogues and randomly drawn compounds.
Rule: inhibition of 20% or more gives label 1; anything lower gives label 0.

Worked examples follow.
CCc1nc2sc(C(=O)O)c(N)c2c2c1CCCC2; label 0
COC(=O)C1=C(C)N=C2SC(C)C(=O)N2C1/C=C/c1ccccc1 (configuration not stated); label 0
CCOc1ccc(NC(=O)CN(C)C(=O)c2c(C)noc2C)cc1OCC; label 0
CCOC(=O)c1ccccc1N1C(=O)C2Sc3[nH]c(=O)sc3C(/C=C/c3ccccc3)C2C1=O (configuration not stated); label 1

Now consider a different compound.
## Task Could you verify whether the entry Cc1cc(Nc2ccccc2)n(CCC#N)n1 shows inhibition of no less than 20%?
## Result label 0
